Target: T1, cynomolgus monkey 4-1BB on CHO-K1 cells (cynomolgus monkey)
T1 chain: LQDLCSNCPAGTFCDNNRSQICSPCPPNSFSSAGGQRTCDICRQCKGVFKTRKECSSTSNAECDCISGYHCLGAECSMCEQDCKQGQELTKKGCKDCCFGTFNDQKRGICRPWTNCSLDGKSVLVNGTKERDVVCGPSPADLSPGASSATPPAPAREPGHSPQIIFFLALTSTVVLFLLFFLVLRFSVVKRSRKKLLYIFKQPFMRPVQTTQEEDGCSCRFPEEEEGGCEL
Experiment: FACS; FIG. 12I
Exercise: state measured EC50 for each of the binders provided.
Numbers only, in nM.

Some entries whose results are on file:
Query :: EC50 for Utomilumab (antibody, V domains shown) VH: EVQLVQSGAEVKKPGESLRISCKGSGYSFSTYWISWVRQMPGKGLEWMGKIYPGDSYTNYSPSFQGQVTISADKSISTAYLQWSSLKASDTAMYYCARGYGIFDYWGQGTLVTVSS VL: SYELTQPPSVSVSPGQTASITCSGDNIGDQYAHWYQQKPGQSPVLVIYQDKNRPSGIPERFSGSNSGNTATLTISGTQAMDEADYYCATYTGFGSLAVFGGGTKLTVLG ?
Result :: 0.378

Query :: Can you check PR007289 (antibody, V domains shown) VH: EVQLVESGGGLVKPGGSLRLSCAASGFTFSDYYMSWFRQAPGKGLEWVSYISSSGSTQDYADSVKGRFTISRDNAKNSLYLQMNSLRAEDTAVYYCAREREPVAGTLDFDNWGQGTPVTVSS next?
Result :: 4.11

Give EC50 for all binders that follow.
1. PR007291 (antibody, V domains shown) VH: EVQLVESGGGLVKPGGSLRLSCVTSGFTFSDYYMNWIRQAPGKGQEWVSYISGNGSTIYYADSVKGRFTISRDNAKNSLYLQMNSLRAEDTAVYYCARVRPGGSGNYWDWFDPWGQGTPVTVSS
2. PR007290 (antibody, V domains shown) VH: EVQLVESGGGVVQPGRSLRLSCAASGFTFSDYYMSWFRQAPGKGLEWVSYISSSGTTIDYADSVKGRFTISRDNAKNSLYLQMNSLRAEDTAVYYCAREREEVAGTLDFDYWGQGTPVTVSS

Result ::
[1.95, 2.5]
